assay: logP by HPLC (EEC Directive 79/831 Annex V.A8); type: physicochemical; details: [b] LC-MS, acidic range, pH 2.7, 0.1% aqueous formic acid and acetonitrile

{"columns": ["Compound", "logP"],
 "data": [
  ["Cc1ccc(C)c(NC(=O)N2CCC(c3nc(C(=O)OCc4ccccc4F)cs3)CC2)c1 [Example 140]", "3.39^[b]"],
  ["Cc1cc(C(F)(F)F)nn1CC(=O)N1CCN(c2nc(C(=O)SCc3ccccc3Cl)cs2)CC1 [Example 49]", 4.29],
  ["Cc1ccc(F)cc1NC(=O)N1CCC(c2nc(C(=O)OC3CCCCC3)cs2)CC1 [Example 74]", "3.74^[b]"],
  ["Cc1ccc(C)c(NC(=O)N2CCC(c3nc(C(=O)O[C@@H]4CCCC[C@H]4c4ccccc4)cs3)CC2)c1 [Example 122]", "4.43^[b]"],
  ["Cc1ccc(C)c(NC(=O)N2CCC(c3nc(C(=O)OCc4c(F)cccc4F)cs3)CC2)c1 [Example 121]", "3.38^[b]"],
  ["Cc1ccc(Cl)cc1NC(=S)N1CCC(c2nc(C(=O)OCc3ccccc3Br)cs2)CC1 [Example 112]", 4.3],
  ["O=C(OC1CCCCC1)c1csc(C2CCN(C(=O)CC3CCCC3)CC2)n1 [Example 83]", 4.15],
  ["O=C(OC1CCCc2ccccc21)c1csc(C2(F)CCN(C(=O)Cn3nc(C(F)F)cc3C(F)F)CC2)n1 (stereo not shown) [Example 68]", "4.12^[b]"],
  ["O=C(OC1CCCCC1)c1csc(C2CCN(C(=O)Cc3cc(C(F)(F)F)ccc3Cl)CC2)n1 [Example 12]", "4.64^[b]"],
  ["Cc1sc(-c2ccccc2)nc1CC(=O)N1CCC(c2nc(C(=O)OC3CCCCC3)cs2)CC1 [Example 21]", "4.57^[b]"],
  ["Cn1ncc(CC(=O)N2CCC(c3nc(C(=O)Oc4cccc5ccccc45)cs3)CC2)c1Cl [Example 5]", "3.00^[b]"],
  ["Cc1cc(C(F)(F)F)nn1CC(=O)N1CCN(c2nc(C(=O)OCc3c(F)cccc3F)cs2)CC1 [Example 51]", 3.28],
  ["COc1ccc(Cl)cc1NC(=O)N1CCC(c2nc(C(=O)OC3CCCCC3)cs2)CC1 [Example 75]", "4.35^[b]"],
  ["Cc1ccc(Cl)cc1NC(=O)N1CCC(c2nc(C(=O)OCc3c(F)cccc3F)cs2)CC1 [Example 163]", "3.62^[b]"],
  ["Cc1ccc(C)c(NC(=O)N2CCC(F)(c3nc(C(=O)O[C@@H]4CCCc5ccccc54)cs3)CC2)c1 [Example 126]", "4.30^[b]"],
  ["COc1ccc(C)cc1NC(=O)N1CCC(c2nc(C(=O)OCc3ccccc3Br)cs2)CC1 [Example 104]", 4.08]
]}

###

Reported logP values for the following compounds.
assay: logP by HPLC (EEC Directive 79/831 Annex V.A8); assay type: physicochemical; conditions: [b] LC-MS, acidic range, pH 2.7, 0.1% aqueous formic acid and acetonitrile
Reported Property: logP

{"columns": ["Compound", "Val"],
 "data": [
  ["Cc1cc(C(F)(F)F)nn1CC(=O)N1CCN(c2nc(C(=O)SCc3ccc(Cl)cc3Cl)cs2)CC1 [Example 50]", 4.79],
  ["Cc1ccc(Cl)cc1NC(=O)N1CCC(F)(c2nc(C(=O)OC3CCCCC3)cs2)CC1 [Example 167]", 4.33]
]}

###

test: logP by HPLC (EEC Directive 79/831 Annex V.A8); assay type: physicochemical; conditions: [b] LC-MS, acidic range, pH 2.7, 0.1% aqueous formic acid and acetonitrile
Reported logP values for the following molecules.
Reported Property: logP

{"columns": ["Molecule", "Val"],
 "data": [
  ["O=C(OC1CCCCC1)c1csc(C2CCN(C(=O)Cc3cc(C(F)(F)F)ccc3C(F)(F)F)CC2)n1", "4.81^[b]"],
  ["CCCCCCC(=O)N1CCC(c2nc(C(=O)OC3CCCCC3)cs2)CC1", "4.51^[b]"],
  ["O=C(OC1CCCCC1)c1csc(C2CCN(C(=O)Cc3cccc(Cl)c3)CC2)n1", "4.04^[b]"],
  ["O=C(OCc1ccccc1Br)c1csc(C2CCN(C(=O)Cc3cc(Cl)ccc3Cl)CC2)n1", 4.41],
  ["COc1ccc(C)cc1NC(=O)N1CCC(c2nc(C(=O)OCc3c(F)cccc3Cl)cs2)CC1", "3.92^[b]"],
  ["Cc1nc(C)n(CC(=O)N2CCC(c3nc(C(=O)OC4CCCCC4)cs3)CC2)n1", "2.08^[b]"],
  ["Cc1oc(-c2ccccc2)nc1CC(=O)N1CCC(c2nc(C(=O)Oc3cccc4ccccc34)cs2)CC1", "4.04^[b]"],
  ["Cc1ccc(C)c(NC(=O)N2CCC(c3nc(C(=O)OCCc4c(Cl)cccc4Cl)cs3)CC2)c1", "4.29^[b]"],
  ["O=C(OC1CCCCC1)c1csc(C2CCN(C(=O)C(=O)c3ccco3)CC2)n1", "3.07^[b]"],
  ["COc1ccc(OC)c(NC(=O)N2CCC(c3nc(C(=O)OC4CCCc5ccccc54)cs3)CC2)c1 (centres unmarked)", "4.05^[b]"],
  ["Cc1cc(C)cc(CC(=O)N2CCC(c3nc(C(=O)OC4CCCCC4)cs3)CC2)c1", 4.32],
  ["O=C(OC1CCCCC1)c1csc(C2CCN(C(=O)CCCC(F)(F)C(F)(F)F)CC2)n1", "4.22^[b]"],
  ["O=C(OC1CCCc2ccccc21)c1csc(C2CCN(C(=O)Cc3cc(Cl)ccc3Cl)CC2)n1 (centres unmarked)", "4.73^[b]"],
  ["Cc1ccc(C)c(CC(=O)N2CCC(c3nc(C(=O)OC4CCCc5ccccc54)cs3)CC2)c1 (centres unmarked)", "4.54^[b]"],
  ["O=C(OC1CCCCC1)c1csc(C2CCN(C(=S)Nc3cc(F)ccc3F)CC2)n1", "3.86^[b]"],
  ["Cc1cc(C(F)(F)F)nn1CC(=O)N1CCN(c2nc(C(=O)OCc3ccc(Cl)cc3Cl)cs2)CC1", "4.12^[c]; 4.12^[b]"],
  ["Cc1ccc(Cl)cc1NC(=O)N1CCC(c2nc(C(=O)OCc3c(F)cccc3Cl)cs2)CC1", "3.89^[b]"],
  ["O=C(OCc1ccccc1Br)c1csc(C2CCN(C(=S)Nc3cc(F)ccc3Br)CC2)n1", 4.04],
  ["COc1ccc(Cl)cc1NC(=O)N1CCC(c2nc(C(=O)OCc3ccccc3Br)cs2)CC1", 4.35],
  ["Cc1sc(-c2ccccc2)nc1CC(=O)N1CCC(c2nc(C(=O)Oc3cccc4ccccc34)cs2)CC1", "4.43^[b]"],
  ["Cc1cc(C(F)(F)F)nn1CC(=O)N1CCN(c2nc(C(=O)OCc3ccccc3Cl)cs2)CC1", "3.64^[c]; 3.64^[b]"],
  ["Cc1ccc(C)c(NC(=O)N2CCC(c3nc(C(=O)OCc4c(F)cccc4Cl)cs3)CC2)c1", "3.66^[b]"],
  ["Cc1cc(C(F)(F)F)nn1CC(=O)N1CCC(F)(c2nc(C(=O)OCc3c(F)cccc3F)cs2)CC1", 3.65],
  ["Cc1ccc(C)c(NC(=S)N2CCC(c3nc(C(=O)OC4CCCCC4)cs3)CC2)c1", "4.17^[b]"],
  ["O=C(Oc1cccc2ccccc12)c1csc(C2CCN(C(=O)Cc3ccsc3)CC2)n1", "3.46^[b]"],
  ["Cc1ccc(F)cc1NC(=O)N1CCC(c2nc(C(=O)OC3CCCc4ccccc43)cs2)CC1 (centres unmarked)", "4.00^[b]"],
  ["Cc1ccc(C)c(NC(=O)N2CCC(c3nc(C(=O)OCc4ccccc4Cl)cs3)CC2)c1", "3.73^[b]"],
  ["Cc1ccc(C)c(NC(=O)N2CCC(c3nc(C(=O)OC4CCCCC4c4ccc(F)c(F)c4)cs3)CC2)c1 (centres unmarked)", "4.52^[b]"],
  ["COc1ccc(C)cc1NC(=O)N1CCC(c2nc(C(=O)OC3CCCc4ccccc43)cs2)CC1 (centres unmarked)", "4.33^[b]"],
  ["COc1ccc(C)cc1NC(=O)N1CCC(F)(c2nc(C(=O)OCc3c(F)cccc3F)cs2)CC1", 3.80],
  ["O=C(OC1CCCCC1)c1csc(C2(F)CCN(C(=O)Cn3nc(C(F)F)cc3C(F)F)CC2)n1", "3.91^[b]"],
  ["Cc1cc(C(F)(F)F)nn1CC(=O)N1CCN(c2nc(C(=O)Sc3cc(C(F)(F)F)ccc3Cl)cs2)CC1", "4.51^[b]"]
]}

###

test: logP by HPLC (EEC Directive 79/831 Annex V.A8); format: physicochemical; conditions: [c] LC-MS, neutral range, pH 7.8, 0.001 molar aqueous ammonium bicarbonate and acetonitrile
Reported logP values for the following compounds.

{"columns": ["Compound", "logP"],
 "data": [
  ["O=C(OCc1ccccc1Br)c1csc(C2CCN(C(=O)Cc3cc(Cl)ccc3Cl)CC2)n1 [Example 87]", 4.44],
  ["COc1ccc(C)cc1NC(=O)N1CCC(c2nc(C(=O)OCc3ccccc3Br)cs2)CC1 [Example 104]", 4.12],
  ["Cc1ccc(C)c(CC(=O)N2CCC(c3nc(C(=O)OCc4ccccc4Br)cs3)CC2)c1 [Example 102]", 4.27],
  ["COc1ccc(C)cc1NC(=O)N1CCC(F)(c2nc(C(=O)OC3CCCCC3)cs2)CC1 [Example 169]", 4.42],
  ["COc1ccc(Cl)cc1NC(=O)N1CCC(c2nc(C(=O)OCc3ccccc3Br)cs2)CC1 [Example 105]", 4.36],
  ["Cc1cc(C(F)(F)F)nn1CC(=O)N1CCN(c2nc(C(=O)Oc3ccccc3Cl)cs2)CC1 [Example 39]", 3.41],
  ["Cc1cc(C(F)(F)F)nn1CC(=O)N1CCN(c2nc(C(=O)OC3Cc4ccccc4C3)cs2)CC1 [Example 41]", 3.56]
]}
